Study Target: T1, MutS (Escherichia coli, UniProt P23909 1-853)
T1 sequence: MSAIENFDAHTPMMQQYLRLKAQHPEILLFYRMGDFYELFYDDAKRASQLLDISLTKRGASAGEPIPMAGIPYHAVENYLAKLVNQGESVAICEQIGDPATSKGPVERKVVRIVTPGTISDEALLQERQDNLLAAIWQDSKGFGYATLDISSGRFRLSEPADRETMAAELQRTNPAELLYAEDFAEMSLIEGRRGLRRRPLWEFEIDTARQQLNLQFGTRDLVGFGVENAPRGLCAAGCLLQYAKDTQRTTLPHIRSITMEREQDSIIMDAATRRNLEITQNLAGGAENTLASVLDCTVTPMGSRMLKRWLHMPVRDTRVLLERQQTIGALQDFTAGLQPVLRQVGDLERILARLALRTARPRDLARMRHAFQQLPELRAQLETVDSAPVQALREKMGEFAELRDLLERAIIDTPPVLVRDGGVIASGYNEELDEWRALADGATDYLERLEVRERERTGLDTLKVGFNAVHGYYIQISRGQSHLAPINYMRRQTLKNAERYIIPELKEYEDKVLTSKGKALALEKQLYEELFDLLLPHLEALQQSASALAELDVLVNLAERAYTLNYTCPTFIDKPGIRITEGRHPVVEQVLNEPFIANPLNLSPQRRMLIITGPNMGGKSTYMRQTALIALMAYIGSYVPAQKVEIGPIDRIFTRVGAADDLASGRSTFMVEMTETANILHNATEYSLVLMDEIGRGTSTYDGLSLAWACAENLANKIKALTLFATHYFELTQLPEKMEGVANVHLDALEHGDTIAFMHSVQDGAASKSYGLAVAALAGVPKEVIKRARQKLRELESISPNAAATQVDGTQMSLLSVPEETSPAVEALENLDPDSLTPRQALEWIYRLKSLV
Assay Info: EMSA; 5 mM Mg2+; 20 pmol unlabeled GC duplex; 20 mM Tris-HCl pH 7.6, 50 mM KCl, 5 mM MgCl2, 1 mM DTT, 0.05 mg/ml BSA, 37 °C 15 min, 20 μl, 2 pmol labeled duplex, 20 pmol unlabeled GC duplex, 5% native PAGE
Measurement Conditions: protein: recombinant; tags: His6; chain copies: 2; label: 5'-32P (KN-2 or KN-3 strand); O6-EtG:C pair
Endpoint Label: pKd
Units for pKd: none; it is -log10 of a concentration expressed in mol/L.

Query: pKd; subject: O6-EtG:C duplex (dsDNA, O6-ethylguanine opposite C) DNA 1: GGTCGCTGGGGAATGGGAGTGGCCACGGCG DNA 2: CGCCGTGGCCACTCCCATTCCCCAGCGACC
6.66
